// cross-study collection: pIC50 for Cyclin-dependent kinase 2 (Homo sapiens, UniProt P24941)
pIC50: −log10 of the molar value.

Example entries and their recorded answers appear below.
{"MOL": "NS(=O)(=O)c1ccc(NC=C2C(=O)Nc3nc(Cl)ccc32)cc1", "SYSTEM NAME": "Cyclin-dependent kinase 2 (Homo sapiens, UniProt P24941)", "DATA VALUE": "6.00 to 7.00"}
{"MOL": "COc1ccc2c(-c3ccnc(NC4CC4)n3)cnn2n1", "SYSTEM NAME": "Cyclin-dependent kinase 2 (Homo sapiens, UniProt P24941)", "DATA VALUE": "> 6.00"}
{"MOL": "CC(C)CNC(=O)c1ccc(C(=O)Nc2ccc(-n3cncn3)cc2)s1", "SYSTEM NAME": "Cyclin-dependent kinase 2 (Homo sapiens, UniProt P24941)", "DATA VALUE": "≤ 4.40"}
{"MOL": "O=[N+]([O-])c1cccc(Nc2nccc(-c3cnn4ncccc34)n2)c1", "SYSTEM NAME": "Cyclin-dependent kinase 2 (Homo sapiens, UniProt P24941)", "DATA VALUE": "> 7.00"}
{"MOL": "N#Cc1cc2cnc(Nc3ccc4c(c3)CCNC4)nc2n(-c2c(F)cccc2F)c1=O", "SYSTEM NAME": "Cyclin-dependent kinase 2 (Homo sapiens, UniProt P24941)", "DATA VALUE": 6.52}

Task: For the compound shown here, NS(=O)(=O)c1ccc(NC=C2C(=O)Nc3ncc(-c4ccco4)cc32)cc1 , give the reported pIC50.
Output: 7.00 to 8.00

Task: Same for COCCOCCOc1cc2ncn(-c3ccc(C#N)cn3)c2nc1N[C@H]1CC[C@@](C)(O)CC1
Output: 5.86

Task: Same for CS(=O)(=O)N1CCC(Nc2ncc3cc(C#N)c(=O)n([C@H]4CCC(F)(F)C4)c3n2)CC1
Output: 7.55

Task: Same for COc1cccc(-c2cnc(Nc3ccc(CN4CCOCC4)cc3)o2)c1
Output: > 6.00

Task: Same for COc1ccc(C(=O)Nc2ccc(C(=O)Nc3ccc(-n4cncn4)c(F)c3)s2)c(C)c1
Output: ≥ 6.00
